Could you please report measured Population Apoptotic (%) for the items listed next?
# System: U2OS
# Assay Notes: Multiplex assay against U2OS
# Type: toxicity, cell-based
# Cond: human, 48 h, 1 µM, compound concentration 1 uM, replicate 2
Kindly answer with a numeric value in %, unit omitted.

Q. Which Population Apoptotic (%) is reported with U2OS for this entry: O=C(O)c1ccc2cc(-c3ccc(O)c(C45CC6CC(CC(C6)C4)C5)c3)ccc2c1 ?
A. 71

Q. Which Population Apoptotic (%) is reported with U2OS for this entry: Cl.Cl.Nc1ncnc2c1c(-c1cccc(OCc3ccccc3)c1)cn2[C@H]1C[C@@H](CN2CCC2)C1 ?
A. 47

Q. Which Population Apoptotic (%) is reported with U2OS for this entry: CCc1cc2c(cc1CC)CC(NC[C@H](O)c1ccc(O)c3[nH]c(=O)ccc13)C2 ?
A. 0

Q. Which Population Apoptotic (%) is reported with U2OS for this entry: CCC(=O)O[C@]1(C(=O)SCF)[C@H](C)C[C@H]2[C@@H]3C[C@H](F)C4=CC(=O)C=C[C@]4(C)[C@@]3(F)[C@@H](O)C[C@@]21C [FLUTICASONE PROPIONATE] ?
A. 20

Q. Which Population Apoptotic (%) is reported with U2OS for this entry: CCCn1c(=O)c2[nH]c(C34CC5CC(CC3C5)C4)nc2n(CCC)c1=O ?
A. 43

Q. Which Population Apoptotic (%) is reported with U2OS for this entry: Cc1nc(Cc2cccc(C(F)(F)F)c2)sc1-c1ccc(C(N)=O)nc1 [TP-024n] ?
A. 33

Q. Which Population Apoptotic (%) is reported with U2OS for this entry: CNc1oc(-c2cccc3ccccc23)nc1C#N ?
A. 0

Q. Which Population Apoptotic (%) is reported with U2OS for this entry: CCn1c(-c2nonc2N)nc2cnc(Oc3cccc(NC(=O)c4ccc(OCCN5CCOCC5)cc4)c3)cc21 [GSK-269962A] ?
A. 33

Q. Which Population Apoptotic (%) is reported with U2OS for this entry: Nc1nc2c(c(N3CCNCC3)n1)CCC1=C2[C@@H]2CCCC[C@@H]2O1 ?
A. 40

Q. Which Population Apoptotic (%) is reported with U2OS for this entry: COc1cc2c(NC3CCN(C(C)C)CC3)nc(N3CCC(F)(F)CC3)nc2cc1OCCCN1CCCC1 ?
A. 29

---

Could you please report measured Population Mitochondria Different-Phenotype (%) for the items listed next?
# Tested on: U2OS
# Assay Notes: Multiplex assay against U2OS
# Assay type: toxicity, cell-based
# Cond: human, 48 h, 10 µM, compound concentration 10 uM, replicate 1
Kindly answer with a numeric value in %, unit omitted.

Q. Would you kindly share the measured Population Mitochondria Different-Phenotype (%) for C1=N/C2=N/c3ccc(OCCN4CCCC4)c(c3)COC/C=C\COCc3cccc(c3)C(=C1)N2 ?
A. 100

Q. Would you kindly share the measured Population Mitochondria Different-Phenotype (%) for O=C(O)c1ccc2cc(-c3ccc(O)c(C45CC6CC(CC(C6)C4)C5)c3)ccc2c1 ?
A. 34

Q. Would you kindly share the measured Population Mitochondria Different-Phenotype (%) for CNC(=O)c1nn(C)c2c1C(C)(C)Cc1cnc(Nc3ccc(N4CCN(C)CC4)cc3)nc1-2 ?
A. 100

Q. Would you kindly share the measured Population Mitochondria Different-Phenotype (%) for CC(=O)c1cc(-c2cc(C(=O)NC3CC3)ccc2C)c2ncccn12 ?
A. 6

Q. Would you kindly share the measured Population Mitochondria Different-Phenotype (%) for COc1cc2c(NC3CCN(C(C)C)CC3)nc(N3CCC(F)(F)CC3)nc2cc1OCCCN1CCCC1 ?
A. 100

Q. Would you kindly share the measured Population Mitochondria Different-Phenotype (%) for CC(C)N1CCC(C)(C)c2cc(C#Cc3ccc(C(=O)O)cc3)ccc21 ?
A. 10

Q. Would you kindly share the measured Population Mitochondria Different-Phenotype (%) for CC(C)Oc1ccc(C(=O)N[C@H](CNC(=O)CN(C)C)Cc2ccc(-c3cn4cccc([C@H](C)O)c4n3)cc2)cc1Cl [GSK-923295A] ?
A. 85

Q. Would you kindly share the measured Population Mitochondria Different-Phenotype (%) for CCCn1c(=O)c2[nH]c(C34CC5CC(CC3C5)C4)nc2n(CCC)c1=O ?
A. 60

Q. Would you kindly share the measured Population Mitochondria Different-Phenotype (%) for CCn1c(-c2nonc2N)nc2cnc(Oc3cccc(NC(=O)c4ccc(OCCN5CCOCC5)cc4)c3)cc21 [GSK-269962A] ?
A. 100

Q. Would you kindly share the measured Population Mitochondria Different-Phenotype (%) for COc1ccc(NS(=O)(=O)c2sc3ccc(Cl)cc3c2C)cc1N1CCNCC1.Cl ?
A. 94

---

Could you please report measured Population Tubulin-Different-Phenotype (%) for the items listed next?
# System: Fibroblast
# Assay Notes: Multiplex assay against human fibroblast
# Format: toxicity, cell-based
# Cond: 12 h, 1 µM, compound concentration 1 uM, replicate 2
Kindly answer with a numeric value in %, unit omitted.

Q. Would you kindly share the measured Population Tubulin-Different-Phenotype (%) for Cc1cn(-c2cc(NC(=O)c3ccc4c(c3)CN(c3cncnc3)C[C@@H]4C)cc(C(F)(F)F)c2)cn1 ?
A. 22

Q. Would you kindly share the measured Population Tubulin-Different-Phenotype (%) for Nc1nc2c(c(N3CCNCC3)n1)CCC1=C2[C@@H]2CCCC[C@@H]2O1 ?
A. 21

Q. Would you kindly share the measured Population Tubulin-Different-Phenotype (%) for Cc1cc2c(cc1N1C(=O)c3cccc4c(CCCO)ccc(c34)C1=O)n(C)c(=O)n2C ?
A. 24

Q. Would you kindly share the measured Population Tubulin-Different-Phenotype (%) for CN(C)C/C=C/C(=O)Nc1cc2c(Nc3ccc(F)c(Cl)c3)ncnc2cc1O[C@H]1CCOC1.O=C(O)/C=C\C(=O)O.O=C(O)/C=C\C(=O)O [AFATINIB DIMALEATE] ?
A. 15

---

# Test system: Fibroblast
# Assay Notes: Multiplex assay against human fibroblast
# Format: toxicity, cell-based
# Cond: 24 h, 10 µM, compound concentration 10 uM, replicate 2
Classify by measured Population Hoechst High Intensity Objects (%): YES if it is equal to or exceeds 40%, NO if it is smaller.

Q. Can Cc1c(Oc2ccc(F)cc2)c(OC(C)C)nn1-c1ccc(C2CC2)cn1 be said to have Population Hoechst High Intensity Objects (%) at or above 40%?
A. NO

Q. Can Cl.Cl.NC1(c2ccc(-c3nc4ccn5c(=O)[nH]nc5c4cc3-c3ccccc3)cc2)CCC1 be said to have Population Hoechst High Intensity Objects (%) at or above 40%?
A. YES

Q. Can CN(C)CCOc1ccc(-c2nc(-c3ccncc3)c(-c3ccc4c(c3)CC/C4=N\O)[nH]2)cc1 be said to have Population Hoechst High Intensity Objects (%) at or above 40%?
A. YES

Q. Can COc1cc2c(NC3CCN(C(C)C)CC3)nc(N3CCC(F)(F)CC3)nc2cc1OCCCN1CCCC1 be said to have Population Hoechst High Intensity Objects (%) at or above 40%?
A. NO

Q. Can Nc1nc2c(c(N3CCNCC3)n1)CCC1=C2[C@@H]2CCCC[C@@H]2O1 be said to have Population Hoechst High Intensity Objects (%) at or above 40%?
A. NO

Q. Can Nc1ccc(C(=O)Nc2cccc(-c3nc(N4CCOCC4)c4oc5ncccc5c4n3)c2)cn1 be said to have Population Hoechst High Intensity Objects (%) at or above 40%?
A. NO

Q. Can CCOc1cc2ncc(C#N)c(Nc3ccc(OCc4cccc(F)c4)c(Cl)c3)c2cc1NC(=O)/C=C/CN(C)C be said to have Population Hoechst High Intensity Objects (%) at or above 40%?
A. YES

Q. Can CN(C)C/C=C/C(=O)Nc1cc2c(Nc3ccc(F)c(Cl)c3)ncnc2cc1O[C@H]1CCOC1.O=C(O)/C=C\C(=O)O.O=C(O)/C=C\C(=O)O [AFATINIB DIMALEATE] be said to have Population Hoechst High Intensity Objects (%) at or above 40%?
A. NO

Q. Can CNc1oc(-c2cccc3ccccc23)nc1C#N be said to have Population Hoechst High Intensity Objects (%) at or above 40%?
A. YES

---

# Test system: U2OS
# Assay Notes: Multiplex assay against U2OS
# Format: toxicity, cell-based
# Cond: human, 24 h, 10 µM, compound concentration 10 uM, replicate 2
Could you please report measured Total Cell Count for the items listed next?
// keep it numeric: no unit symbol after the value

Q. Which Total Cell Count is reported with U2OS for this entry: CCC(=O)O[C@]1(C(=O)SCF)[C@H](C)C[C@H]2[C@@H]3C[C@H](F)C4=CC(=O)C=C[C@]4(C)[C@@]3(F)[C@@H](O)C[C@@]21C [FLUTICASONE PROPIONATE] ?
A. 59

Q. Which Total Cell Count is reported with U2OS for this entry: Cl.Cl.NC1(c2ccc(-c3nc4ccn5c(=O)[nH]nc5c4cc3-c3ccccc3)cc2)CCC1 ?
A. 181

Q. Which Total Cell Count is reported with U2OS for this entry: CCc1cc2c(cc1CC)CC(NC[C@H](O)c1ccc(O)c3[nH]c(=O)ccc13)C2 [INDACATEROL] ?
A. 78

Q. Which Total Cell Count is reported with U2OS for this entry: Cl.Cl.Nc1ncnc2c1c(-c1cccc(OCc3ccccc3)c1)cn2[C@H]1C[C@@H](CN2CCC2)C1 ?
A. 104
